Each record here notes measured IC50 of inhibition of cleavage of chemical substrate S2302 by FXIIa (OD405).
- Target under test: T1, huFXII-his (human, UniProt P00748 20-615)
- T1 sequence (looked up): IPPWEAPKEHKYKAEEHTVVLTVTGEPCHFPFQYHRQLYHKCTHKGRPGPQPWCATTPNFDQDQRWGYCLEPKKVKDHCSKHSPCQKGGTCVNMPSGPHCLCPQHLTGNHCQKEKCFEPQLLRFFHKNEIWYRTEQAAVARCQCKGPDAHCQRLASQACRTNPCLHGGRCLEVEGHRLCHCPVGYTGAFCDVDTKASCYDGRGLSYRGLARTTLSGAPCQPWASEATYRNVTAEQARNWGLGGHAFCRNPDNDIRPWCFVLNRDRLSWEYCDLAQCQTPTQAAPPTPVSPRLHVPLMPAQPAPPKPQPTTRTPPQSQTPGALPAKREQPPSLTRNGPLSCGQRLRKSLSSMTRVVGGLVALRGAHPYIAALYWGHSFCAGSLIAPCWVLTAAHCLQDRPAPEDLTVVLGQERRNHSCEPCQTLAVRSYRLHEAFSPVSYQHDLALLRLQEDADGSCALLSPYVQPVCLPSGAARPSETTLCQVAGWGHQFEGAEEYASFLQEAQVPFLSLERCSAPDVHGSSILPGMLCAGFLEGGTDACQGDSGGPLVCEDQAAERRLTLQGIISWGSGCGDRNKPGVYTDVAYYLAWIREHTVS
- Assay remarks: cell-based or functional assay
Measurement type: IC50 of inhibition of cleavage of chemical substrate S2302 by FXIIa (OD405)

binder="FX-Y17-Y47 (antibody, V domains shown) VH: EVQLLESGGGLVQPGGSLRLSCAGSGFSFGSQTMSWVRQAPGKGLEWVSSISVISGRDYYADSVKGRFTISRDNSKNTLYLQMNSLRAEDTAVYYCTRSHAFDVWGQGTMVTVSS VL: EIVLTQSPATLSVSPGERATLSCRASQSVYSALAWYQQKPGQAPRLLIYGASTRATGIPARFSGSGSGTEFTLTISSLQSEDFAVYYCQQYHKWPLSFGGGTKVEIK" recorded_result="0.0179 µg/mL"
binder="FX-Y17-Y51 (antibody, V domains shown) VH: EVQLLESGGGLVQPGGSLRLSCAGSGFSFGSQTMSWVRQAPGKGLEWVSSISVISGRNYYADSVKGRFTISRDNSKNTLYLQMNSLRAEDTAVYYCTRSHAFDVWGQGTMVTVSS VL: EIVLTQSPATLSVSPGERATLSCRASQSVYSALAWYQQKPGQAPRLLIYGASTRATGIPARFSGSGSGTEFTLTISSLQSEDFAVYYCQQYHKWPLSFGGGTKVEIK" recorded_result="0.0155 µg/mL"
binder="FX-Y17-Y42 (antibody, V domains shown) VH: EVQLLESGGGLVQPGGSLRLSCAGSGFSLGSQTMSWVRQAPGKGLEWVSSISVISGRMYYADSVKGRFTISRDNSKNTLYLQMNSLRAEDTAVYYCTKSHAFDVWGQGTMVTVSS VL: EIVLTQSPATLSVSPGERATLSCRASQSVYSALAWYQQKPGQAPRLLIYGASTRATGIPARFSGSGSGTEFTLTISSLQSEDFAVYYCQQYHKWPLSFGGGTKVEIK" recorded_result="0.0177 µg/mL"
binder="FX-Y17-Y33 (antibody, V domains shown) VH: EVQLLESGGGLVQPGGSLRLSCAGSGFSFGSQTMSWVRQAPGKGLEWVSSISVISGRKYYADSVKGRFTISRDNSKNTLYLQMNSLRAEDTAVYYCTKSHAFDVWGQGTMVTVSS VL: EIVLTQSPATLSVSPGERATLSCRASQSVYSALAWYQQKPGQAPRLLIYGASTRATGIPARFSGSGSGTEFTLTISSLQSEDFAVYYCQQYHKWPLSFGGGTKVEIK" recorded_result="0.022 µg/mL"
binder="FX-Y17-Y38 (antibody, V domains shown) VH: EVQLLESGGGLVQPGGSLRLSCAGSGFSFGSQTMSWVRQAPGKGLEWVSSISVISRRTYYADSVKGRFTISRDNSKNTLYLQMNSLRAEDTAVYYCAKSHAFDVWGQGTMVTVSS VL: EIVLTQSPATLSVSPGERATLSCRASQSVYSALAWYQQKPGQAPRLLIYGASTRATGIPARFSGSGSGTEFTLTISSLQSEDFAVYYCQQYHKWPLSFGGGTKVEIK" recorded_result="0.016 µg/mL"
